assay-explanation: Cmax in patient with tuberculosis at 600 mg, po once daily for 15 to 18 days
Type: ADME, organism-based
Parameters: dose 600 mg, route oral
particulars: human, in vivo
readout-name: Cmax (µM)
Express your answer in µM, writing the number without its unit.

query: Entry C[C@H]1c2cccc(O)c2C(=O)C2=C(O)[C@]3(O)C(=O)C(C(N)=O)=C(O)[C@@H](N(C)C)[C@@H]3[C@@H](O)[C@@H]21.O [DOXYCYCLINE] has what Cmax?
result: 6.9

---

assay-explanation: Half life in patient with tuberculosis at 600 mg, po once daily for 15 to 18 days
Assay type: ADME, organism-based
particulars: human, in vivo
readout-name: half-life (h)
Express your answer in h, writing the number without its unit.

query: Entry C[C@H]1c2cccc(O)c2C(=O)C2=C(O)[C@]3(O)C(=O)C(C(N)=O)=C(O)[C@@H](N(C)C)[C@@H]3[C@@H](O)[C@@H]21.O has what half-life?
result: 7
